Ref: the array DNA melting data of Ke et al. (doi:10.1101/2024.01.08.574731)

ASSAY INFO: folding enthalpy; higher = less favourable; fluorescence melt of hairpins on a sequencing array, two-state fit
TEST SETTINGS: sodium 0.088 M
Entry flag: MET if folding enthalpy reaches -30 kcal/mol; NOT MET if it does not.

Before answering, review these 8 worked examples.
RESIDUE SEQUENCE: CGGTGCGGAAACGCCCCG (((.(((....))).)))
CLASS NAME: MET
//
RESIDUE SEQUENCE: GCTAAGCGAAAGCTGAGC (((.(((....))).)))
CLASS NAME: NOT MET
//
RESIDUE SEQUENCE: GGGAAGGGAAACCTCCCC (((.(((....))).)))
CLASS NAME: MET
//
RESIDUE SEQUENCE: GGAACAGCGAAAGCTTCC (((..(((....))))))
CLASS NAME: MET
//
RESIDUE SEQUENCE: GGACTCGAAAGAGCGTCC ((((((....)))..)))
CLASS NAME: MET
//
RESIDUE SEQUENCE: GTCTAGGCGAAAGCCGAC (((..(((....))))))
CLASS NAME: MET
//
RESIDUE SEQUENCE: GGAAAATCGAAAGATTCC (((..(((....))))))
CLASS NAME: MET
//
RESIDUE SEQUENCE: GTTCTTCGAAAGAACAAC (((.(((....))).)))
CLASS NAME: MET

Query: Assess whether reported folding enthalpy for GAACACGAAAGTGCGTTC ((((((....)))..))) sits at -30 kcal/mol or higher.
Reply: MET

Query: In plain terms: is recorded folding enthalpy at least -30 kcal/mol for GATCTCATCTGAGATC ((((((....)))))) ?
Reply: NOT MET

Query: Could you tell me if the measured folding enthalpy of GTGTCGAAAGACAC (((((....))))) reaches -30 kcal/mol or more?
Reply: MET

Query: Record GCATCAACGAAAGTTTGC (((..(((....)))))) ; criterion: folding enthalpy no lower than -30 kcal/mol. Met?
Reply: MET

Query: hey, is folding enthalpy for this one >= -30 kcal/mol? GATCCAGGAGTGGATC ((((((....))))))
Reply: NOT MET

Query: Would you say GCGAAACGAAAGTTCGC (((.(((....)))))) shows folding enthalpy at minimum -30 kcal/mol?
Reply: NOT MET

Query: State whether the measured folding enthalpy reaches -30 kcal/mol, counting equality as reaching it, for GCCAGGGGAAACCCCGGC (((.(((....))).)))
Reply: NOT MET

Query: Has GCCTGTCGAAAGACCGGC (((.(((....))).))) a recorded folding enthalpy greater than or equal to -30 kcal/mol?
Reply: NOT MET

Query: Does the reported folding enthalpy for GCCGCGGGAAACCGCGAC (.(((((....))))).) fall at or above the -30 kcal/mol mark?
Reply: MET

###

ASSAY INFO: melting temperature; fluorescence melt of hairpins on a sequencing array, two-state fit, raised by 9.35 °C to match UV melts
TEST SETTINGS: sodium 0.088 M
Hi, to clarify the labels: Criterion met covers Tm from 40 °C upward, Criterion not met covers anything below 40 °C.

Would you please look over these solved cases?
RESIDUE SEQUENCE: CGCGGAAAAACAACAACAACCGCG ((....................))
CLASS NAME: Criterion not met
//
RESIDUE SEQUENCE: GATCATCAAAATGATC ((((((....))))))
CLASS NAME: Criterion met
//
RESIDUE SEQUENCE: GATCTATCATTAGATC ((((((....))))))
CLASS NAME: Criterion met

Query: Given the entry GCAGCCGGAAACAGCTGC (((((.(....).))))) , answer whether its Tm meets or surpasses 40 °C.
Reply: Criterion met

Query: Form field: Tm at least 40 °C? Entry: GACCACGAAAGTGAGGTC ((((((....)))..)))
Reply: Criterion met
